# System: B16F10 cells
# Assay Notes: DDA-induced cytotoxicity (cell death)
# Format: cell-based
# Condition Set: Mus musculus, B16-F10, 72 h, read-out: Cytotox EC50
Measured Endpoint: pEC50
Friendly reminder that pEC50 comes from taking -log10 of the concentration in mol/L.

Req: Which pEC50 is listed for CC(C)CCC[C@@H](C)[C@H]1CC[C@H]2[C@@H]3C[C@@H](NCCc4cnc[nH]4)[C@@]4(O)C[C@@H](O)CC[C@]4(C)[C@H]3CC[C@]12C [DDA, Dendrogenin A] ?
Resp: 6.15

====

# Lookup of reported ABCG1 mRNA keyed by entry
# Test system: SKMEL-28 cells
# Assay Notes: RT-qPCR of LXR-responsive genes
# Assay type: cell-based, human
# Condition Set: SKMEL-28, siCT, 8 h; 2.5 µM DDA, 10 µM 22(R)HC, 1 µM GW, 100 nM TO; vs vehicle
Return type: number; implicit unit fold.

// known answers, use as guide
Compound: O=S(=O)(c1ccccc1)N(CC(F)(F)F)c1ccc(C(O)(C(F)(F)F)C(F)(F)F)cc1
ABCG1 mRNA / fold: 2.8
--
Compound: CC(C)CCC[C@@H](C)[C@H]1CC[C@H]2[C@@H]3C[C@@H](NCCc4cnc[nH]4)[C@@]4(O)C[C@@H](O)CC[C@]4(C)[C@H]3CC[C@]12C
ABCG1 mRNA / fold: 1.0
--
Compound: O=C(O)Cc1cccc(OCCCN(Cc2cccc(C(F)(F)F)c2Cl)CC(c2ccccc2)c2ccccc2)c1
ABCG1 mRNA / fold: 3.2

Req: Which ABCG1 mRNA is listed for CC(C)CC[C@@H](O)[C@@H](C)[C@H]1CC[C@H]2[C@@H]3CC=C4C[C@@H](O)CC[C@]4(C)[C@H]3CC[C@]12C [22(R)HC, 22(R)-hydroxycholesterol] ?
Resp: 2.1

====

# Test system: HL60 cells
# Assay Notes: qRT-PCR of Nur77 and NOR1
# Assay type: cell-based, human
# Condition Set: HL60, 24 h; 5 µM DDA, 2 µM TO, 2 µM GW, 10 µM 22(R)HC
# Lookup of reported Nur77 mRNA levels (Fold over control) keyed by entry
Return type: number; implicit unit fold.

// known answers, use as guide
Compound: O=S(=O)(c1ccccc1)N(CC(F)(F)F)c1ccc(C(O)(C(F)(F)F)C(F)(F)F)cc1
Readout Units: fold
Nur77 mRNA levels (Fold over control): 0.4
//
Compound: O=C(O)Cc1cccc(OCCCN(Cc2cccc(C(F)(F)F)c2Cl)CC(c2ccccc2)c2ccccc2)c1
Readout Units: fold
Nur77 mRNA levels (Fold over control): 1.3
//
Compound: CC(C)CC[C@@H](O)[C@@H](C)[C@H]1CC[C@H]2[C@@H]3CC=C4C[C@@H](O)CC[C@]4(C)[C@H]3CC[C@]12C [22(R)HC, 22(R)-hydroxycholesterol]
Readout Units: fold
Nur77 mRNA levels (Fold over control): 0.8

Consider the additional compound presented here.
Req: Which Nur77 mRNA levels (Fold over control) is listed for CC(C)CCC[C@@H](C)[C@H]1CC[C@H]2[C@@H]3C[C@@H](NCCc4cnc[nH]4)[C@@]4(O)C[C@@H](O)CC[C@]4(C)[C@H]3CC[C@]12C ?
Resp: 11.2

====

# Tested on: WM35 cells
# Assay Notes: Clonogenicity inhibition
# Format: cell-based
# Condition Set: Homo sapiens; WM35 (H); 72 h; read-out: Clono IC50
Measured Endpoint: pIC50
Friendly reminder that pIC50 comes from taking -log10 of the concentration in mol/L.

Req: Quick check: pIC50 on WM35 cells, item CC(C)CCC[C@@H](C)[C@H]1CC[C@H]2[C@@H]3C[C@@H](NCCc4cnc[nH]4)[C@@]4(O)C[C@@H](O)CC[C@]4(C)[C@H]3CC[C@]12C [DDA, Dendrogenin A] ?
Resp: 5.85

====

# Assay Notes: DDA concentrations in spleen and bone marrow
# Assay type: in vivo, NSG mice
# Condition Set: NSG, mouse, spleen, ip; daily i.p. 20 mg/kg for 21 days; read-out: DDA concentration in the spleen
Measured Endpoint: concentration at 21 days (nM)
Return type: number; implicit unit nM.

Req: Which concentration at 21 days is listed for CC(C)CCC[C@@H](C)[C@H]1CC[C@H]2[C@@H]3C[C@@H](NCCc4cnc[nH]4)[C@@]4(O)C[C@@H](O)CC[C@]4(C)[C@H]3CC[C@]12C [DDA, Dendrogenin A] ?
Resp: 1320

====

# System: KG1 cells
# Assay Notes: qRT-PCR of Nur77 and NOR1
# Assay type: cell-based, human
# Condition Set: KG1, 24 h; 5 µM DDA, 2 µM TO, 2 µM GW, 10 µM 22(R)HC
# Lookup of reported Nur77 mRNA levels (Fold over control) keyed by entry
Remember to quote the unit after the number.

// known answers, use as guide
Compound: CC(C)CCC[C@@H](C)[C@H]1CC[C@H]2[C@@H]3C[C@@H](NCCc4cnc[nH]4)[C@@]4(O)C[C@@H](O)CC[C@]4(C)[C@H]3CC[C@]12C
Experimental System: KG1 cells
Result: 8.8 fold
--
Compound: O=C(O)Cc1cccc(OCCCN(Cc2cccc(C(F)(F)F)c2Cl)CC(c2ccccc2)c2ccccc2)c1
Experimental System: KG1 cells
Result: 0.8 fold

Req: Which Nur77 mRNA levels (Fold over control) is listed for CC(C)CC[C@@H](O)[C@@H](C)[C@H]1CC[C@H]2[C@@H]3CC=C4C[C@@H](O)CC[C@]4(C)[C@H]3CC[C@]12C [22(R)HC, 22(R)-hydroxycholesterol] ?
Resp: 1.1 fold

Req: Similarly, O=S(=O)(c1ccccc1)N(CC(F)(F)F)c1ccc(C(O)(C(F)(F)F)C(F)(F)F)cc1 ?
Resp: 1.5 fold

====

# Assay Notes: in vivo
# Design: species or system NSG mice
# Condition Set: NSG, mouse, iv, 20 mg/kg
Measured Endpoint: Tmax (s)
Return type: number; implicit unit s.

Req: Which Tmax is listed for CC(C)CCC[C@@H](C)[C@H]1CC[C@H]2[C@@H]3C[C@@H](NCCc4cnc[nH]4)[C@@]4(O)C[C@@H](O)CC[C@]4(C)[C@H]3CC[C@]12C ?
Resp: 7.2

====

# Lookup of reported NOR1 mRNA keyed by entry
# Test system: SKMEL-28 cells
# Assay Notes: RT-qPCR of LXR-responsive genes
# Format: cell-based, human
# Condition Set: SKMEL-28, siCT, 8 h; 2.5 µM DDA, 10 µM 22(R)HC, 1 µM GW, 100 nM TO; vs vehicle
Remember to quote the unit after the number.

// known answers, use as guide
Compound: O=S(=O)(c1ccccc1)N(CC(F)(F)F)c1ccc(C(O)(C(F)(F)F)C(F)(F)F)cc1
NOR1 mRNA: 1.7±0.1 fold
--
Compound: CC(C)CC[C@@H](O)[C@@H](C)[C@H]1CC[C@H]2[C@@H]3CC=C4C[C@@H](O)CC[C@]4(C)[C@H]3CC[C@]12C [22(R)HC, 22(R)-hydroxycholesterol]
NOR1 mRNA: 1.8±0.1 fold
--
Compound: CC(C)CCC[C@@H](C)[C@H]1CC[C@H]2[C@@H]3C[C@@H](NCCc4cnc[nH]4)[C@@]4(O)C[C@@H](O)CC[C@]4(C)[C@H]3CC[C@]12C
NOR1 mRNA: 4.8±0.2 fold

Consider the additional compound presented here.
Req: Which NOR1 mRNA is listed for O=C(O)Cc1cccc(OCCCN(Cc2cccc(C(F)(F)F)c2Cl)CC(c2ccccc2)c2ccccc2)c1 ?
Resp: 1.5±0.1 fold

====

# Test system: B16F10 cells
# Assay Notes: RT-qPCR of LXR-responsive genes
# Format: cell-based, mouse
# Condition Set: B16F10, siLXRβ, 8 h; 2.5 µM DDA, 10 µM 22(R)HC, 1 µM GW, 100 nM TO; vs vehicle
# Lookup of reported SREBP1 mRNA keyed by entry

Req: Which SREBP1 mRNA is listed for O=S(=O)(c1ccccc1)N(CC(F)(F)F)c1ccc(C(O)(C(F)(F)F)C(F)(F)F)cc1 [TO, TO901317] ?
Resp: 0.9±0.2 fold

Req: Similarly, CC(C)CC[C@@H](O)[C@@H](C)[C@H]1CC[C@H]2[C@@H]3CC=C4C[C@@H](O)CC[C@]4(C)[C@H]3CC[C@]12C [22(R)HC, 22(R)-hydroxycholesterol] ?
Resp: 1.2±0.1 fold

Req: Similarly, O=C(O)Cc1cccc(OCCCN(Cc2cccc(C(F)(F)F)c2Cl)CC(c2ccccc2)c2ccccc2)c1 [GW, GW3965] ?
Resp: 1.1±0.2 fold

Req: Similarly, CC(C)CCC[C@@H](C)[C@H]1CC[C@H]2[C@@H]3C[C@@H](NCCc4cnc[nH]4)[C@@]4(O)C[C@@H](O)CC[C@]4(C)[C@H]3CC[C@]12C [DDA, Dendrogenin A] ?
Resp: 0.9±0.2 fold
